Origin of measurements: ChEMBL document CHEMBL3991601

Biological target: Ribosomal protein S6 kinase alpha-6 (Homo sapiens, UniProt Q9UK32); further: in the data inactive means no Kd found up to 30 µM
Calls of active or inactive are those of the source.
Select the correct class. Options are active, inactive and nothing else.

Consider the worked cases shown below.
Compound	Label value
O=C(Nc1cc(C(F)(F)F)cc(C(F)(F)F)c1)c1cc(Cl)ccc1O [IMD-0354]	inactive
C=CC(=O)Nc1cc2c(Nc3ccc(F)c(Cl)c3)ncnc2cc1C#CC(C)(C)N1CCN(C)CC1 [AV-412 FREE BASE]	inactive
CC(C)c1cc(CNc2nc(Nc3cc(C4CC4)[nH]n3)cc(N3CCN(C)CC3)n2)on1 [XL-228]	inactive
CCCCCCCCCCCCCCCCCCOP(=O)([O-])OC1CC[N+](C)(C)CC1 [PERIFOSINE]	inactive
CC(=O)c1cnc2ccc(-c3cc(Cl)c(O)c(Cl)c3)nc2c1N[C@H]1CC[C@H](CN(C)C)CC1	active
Cc1nc2cc(-n3ncc(C(=O)c4cc5ccccc5[nH]4)c3N)ccc2[nH]1 [FGFR INHIBITOR DEBIO 1347]	inactive
COc1cc(Nc2ncc3c(n2)-c2ccc(Cl)cc2C(c2c(F)cccc2OC)=NC3)ccc1C(=O)O [ALISERTIB]	inactive
COc1c(OCCCN2CCOCC2)ccc2c1N=C(NC(=O)c1cnc(N)nc1)N1CCN=C21 [COPANLISIB]	inactive
Cc1cccc(-c2nn3c(c2-c2ccnc4ccc(C(N)=O)cc24)CCC3)n1 [GALUNISERTIB]	inactive
CCn1cc(-c2ccnc3[nH]c(-c4cccc(CN(C)C)c4)cc23)c(-c2ccc(NC(=O)N(C)C)cc2)n1 [GSK-1070916]	inactive

We next turn to a different compound, shown below.
Please state the recorded outcome for this compound: FC(F)(F)c1ccc(/C=C/c2nc(COc3ccc(CCCCn4ccnn4)cc3)co2)cc1 [MUBRITINIB] inactive

* * *

Target: Ribosomal protein S6 kinase alpha-3 (Homo sapiens); further: in the data inactive means no Kd found up to 30 µM
Sequence (P51812 whole entry): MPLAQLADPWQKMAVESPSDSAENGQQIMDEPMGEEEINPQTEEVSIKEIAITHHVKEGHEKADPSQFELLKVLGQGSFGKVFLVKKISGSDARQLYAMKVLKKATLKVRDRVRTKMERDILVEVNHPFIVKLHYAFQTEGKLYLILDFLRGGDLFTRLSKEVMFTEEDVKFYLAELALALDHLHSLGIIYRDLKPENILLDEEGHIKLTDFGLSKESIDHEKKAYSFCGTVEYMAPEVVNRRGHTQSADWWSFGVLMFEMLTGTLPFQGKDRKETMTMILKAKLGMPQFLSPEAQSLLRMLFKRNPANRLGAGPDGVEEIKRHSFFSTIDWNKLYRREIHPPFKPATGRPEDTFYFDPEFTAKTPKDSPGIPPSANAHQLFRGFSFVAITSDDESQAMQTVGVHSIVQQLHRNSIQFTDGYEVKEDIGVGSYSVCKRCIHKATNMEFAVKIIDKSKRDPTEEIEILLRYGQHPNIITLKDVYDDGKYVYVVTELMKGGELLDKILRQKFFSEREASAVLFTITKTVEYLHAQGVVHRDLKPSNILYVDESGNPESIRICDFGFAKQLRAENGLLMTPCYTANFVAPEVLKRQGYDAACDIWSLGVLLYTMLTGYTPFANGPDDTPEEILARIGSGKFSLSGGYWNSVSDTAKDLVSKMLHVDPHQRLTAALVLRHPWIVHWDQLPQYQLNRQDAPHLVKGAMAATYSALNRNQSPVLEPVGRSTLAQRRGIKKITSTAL
Active and inactive are the calls of the source.
Pick from yes (1) for active, no (0) for inactive when you respond.

These solved cases illustrate the format of a correct answer.
Molecule	Label value
C[C@@H](N)c1ccc(C(=O)Nc2ccnc3[nH]ccc23)cc1	no (0)
Cc1csc(-c2nnc(Nc3ccc(Oc4ncccc4-c4ccnc(N)n4)cc3)c3ccccc23)c1	no (0)

Hello, I am checking results. What call was entered for CNC(=O)c1nn(C)c2c1C(C)(C)Cc1cnc(Nc3ccc(N4CCN(C)CC4)cc3)nc1-2 ? no (0)

For Cc1nc(Nc2n[nH]c3c2CN(C(=O)N[C@H](CN(C)C)c2ccccc2)C3(C)C)c2sccc2n1 , what call appears in the results of this test? yes (1)

* * *

Molecular target: Protein kinase C alpha type (Homo sapiens, UniProt P17252); further: in the data inactive means no Kd found up to 30 µM
The source made the active and inactive calls.
Could you please pick one outcome from this set? active, inactive

Identify the outcome logged in this assay for the compound shown: CN(C[C@@H]1COCCO1)S(=O)(=O)Nc1ccc2ccc3ncc(-c4cnn(C)c4)cc3c(=O)c2c1 [MK-2461] inactive

Query: recorded result category for Cn1ncc(Cl)c1-c1cc(C(=O)N[C@H](CN)Cc2ccc(F)c(F)c2)oc1Cl [UPROSERTIB] in this test active

Outcome logged for N#CC1(c2ccc(NC(=O)c3cccnc3NCc3ccncc3)cc2)CCCC1 [RIVOCERANIB] in this assay: inactive

Recorded test call requested for COc1cc2c(Nc3ccc(Cl)c(Cl)c3F)ncnc2cc1OC[C@@H]1C[C@@H]2CN(C)C[C@@H]2C1 [TESEVATINIB] inactive

Outcome? NC(=O)c1c(OCc2c(F)cc(Br)cc2F)nsc1NC(=O)NCCCCN1CCCC1 [OSI-632] inactive

What did the test return for C=CC(=O)Nc1cc2c(Nc3ccc(F)c(Cl)c3)ncnc2cc1C#CC(C)(C)N1CCN(C)CC1 [AV-412 FREE BASE] ? inactive

What call does the record list for Cc1nc(Nc2n[nH]c3c2CN(C(=O)N[C@H](CN(C)C)c2ccccc2)C3(C)C)c2sccc2n1 [PF-03758309] ? active

How did this test come out for NC(=O)Nc1cc(-c2cccc(F)c2)sc1C(=O)N[C@H]1CCCNC1 [AZD-7762] ? inactive

* * *

Target: Dual specificity mitogen-activated protein kinase kinase 2 (Homo sapiens, UniProt P36507); further: in the data inactive means no Kd found up to 30 µM
Sequence (P36507 whole entry): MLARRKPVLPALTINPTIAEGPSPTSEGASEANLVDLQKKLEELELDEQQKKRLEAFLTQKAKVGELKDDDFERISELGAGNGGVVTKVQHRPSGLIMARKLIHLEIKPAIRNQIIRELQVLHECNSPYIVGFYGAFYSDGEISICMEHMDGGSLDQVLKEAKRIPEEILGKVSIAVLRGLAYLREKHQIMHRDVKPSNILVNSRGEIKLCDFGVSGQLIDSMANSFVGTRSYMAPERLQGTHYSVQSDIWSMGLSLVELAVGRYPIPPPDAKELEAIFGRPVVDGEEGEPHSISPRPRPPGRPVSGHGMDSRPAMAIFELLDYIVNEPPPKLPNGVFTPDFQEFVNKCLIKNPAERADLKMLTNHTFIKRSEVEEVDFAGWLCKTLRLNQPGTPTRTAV
Calls of active or inactive are those of the source.
Give one outcome, nothing more. List: True = active, False = inactive

Line notation	Label value
COc1cc2c(Nc3ccc(Cl)c(Cl)c3F)ncnc2cc1OC[C@@H]1C[C@@H]2CN(C)C[C@@H]2C1	False
Cc1nc2cc(-n3ncc(C(=O)c4cc5ccccc5[nH]4)c3N)ccc2[nH]1	False
Cn1cc(-c2cnn3c(N)c(Br)c([C@@H]4CCCNC4)nc23)cn1	True
CCn1c(C(=O)N(C2CC2)C2CC2)cc2c3c(ncn3C)c(Nc3cc(C)n(C)n3)nc21	False
CN1C/C=C/CCOc2cccc(c2)-c2ccnc(n2)Nc2cccc(c2)C1	False

Assay outcome for CN1CCN(CCOc2cc(OC3CCOCC3)c3c(Nc4c(Cl)ccc5c4OCO5)ncnc3c2)CC1 : what was it? False

What was the test verdict on COCc1c(-c2ccc(NC(=O)Nc3cc(C(F)(F)F)ccc3F)c(F)c2)c2c(N)ncnn2c1CN1CCOCC1 ? False

Called result for NC1(c2ccc(-c3nc4ccn5c(=O)[nH]nc5c4cc3-c3ccccc3)cc2)CCC1 False

* * *

Target: Peroxisomal acyl-coenzyme A oxidase 1 (Homo sapiens, UniProt Q15067); further: in the data inactive means no Kd found up to 30 µM
Sequence (Q15067 whole entry): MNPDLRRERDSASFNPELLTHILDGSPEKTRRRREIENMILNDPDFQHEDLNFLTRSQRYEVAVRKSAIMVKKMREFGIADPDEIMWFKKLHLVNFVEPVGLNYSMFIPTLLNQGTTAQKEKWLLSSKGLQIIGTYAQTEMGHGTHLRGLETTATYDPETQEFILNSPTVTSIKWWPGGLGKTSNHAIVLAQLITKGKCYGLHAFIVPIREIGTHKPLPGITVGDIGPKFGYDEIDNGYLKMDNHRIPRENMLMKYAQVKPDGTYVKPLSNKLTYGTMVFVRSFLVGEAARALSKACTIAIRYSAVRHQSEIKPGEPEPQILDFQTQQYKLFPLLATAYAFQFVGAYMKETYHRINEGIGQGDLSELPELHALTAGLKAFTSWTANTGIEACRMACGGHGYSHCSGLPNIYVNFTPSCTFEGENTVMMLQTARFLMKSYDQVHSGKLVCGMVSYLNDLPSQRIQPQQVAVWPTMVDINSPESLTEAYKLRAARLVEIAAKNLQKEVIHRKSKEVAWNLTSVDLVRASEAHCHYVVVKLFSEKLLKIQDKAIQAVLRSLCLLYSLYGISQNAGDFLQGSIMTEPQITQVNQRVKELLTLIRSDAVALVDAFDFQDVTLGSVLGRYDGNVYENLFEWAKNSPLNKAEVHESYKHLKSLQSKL
The source made the active and inactive calls.
Experimental readout: Kd

Please look up its Kd: C[C@@H](Oc1cc(-n2cnc3ccc(CN4CCN(C)CC4)cc32)sc1C(N)=O)c1ccccc1C(F)(F)F [GSK-461364] > 30 µM (inactive)

* * *

Target: Fibroblast growth factor receptor 1 (Homo sapiens, UniProt P11362); further: in the data inactive means no Kd found up to 30 µM
Sequence (P11362 whole entry): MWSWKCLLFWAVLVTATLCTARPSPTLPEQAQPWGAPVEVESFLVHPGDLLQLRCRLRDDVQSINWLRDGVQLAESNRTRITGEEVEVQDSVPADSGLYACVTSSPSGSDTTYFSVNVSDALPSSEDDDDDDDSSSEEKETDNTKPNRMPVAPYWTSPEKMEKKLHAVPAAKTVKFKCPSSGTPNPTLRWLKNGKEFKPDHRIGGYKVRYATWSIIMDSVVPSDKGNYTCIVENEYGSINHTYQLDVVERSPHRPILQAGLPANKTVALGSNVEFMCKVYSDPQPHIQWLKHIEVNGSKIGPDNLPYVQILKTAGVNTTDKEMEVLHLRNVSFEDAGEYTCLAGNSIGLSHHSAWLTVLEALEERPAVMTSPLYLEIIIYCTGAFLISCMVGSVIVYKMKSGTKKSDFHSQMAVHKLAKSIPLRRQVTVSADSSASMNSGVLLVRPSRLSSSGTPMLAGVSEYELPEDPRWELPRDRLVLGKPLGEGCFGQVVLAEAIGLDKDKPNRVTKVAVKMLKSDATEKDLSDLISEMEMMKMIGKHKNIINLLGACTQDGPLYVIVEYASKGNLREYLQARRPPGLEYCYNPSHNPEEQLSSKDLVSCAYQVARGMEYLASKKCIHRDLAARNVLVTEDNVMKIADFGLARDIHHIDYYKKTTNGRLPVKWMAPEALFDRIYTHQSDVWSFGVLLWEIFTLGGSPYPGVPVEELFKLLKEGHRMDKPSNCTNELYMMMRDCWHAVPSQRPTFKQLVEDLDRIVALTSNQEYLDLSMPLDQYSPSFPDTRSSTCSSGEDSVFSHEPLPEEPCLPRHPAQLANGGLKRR
Calls of active or inactive are those of the source.
The molecules listed here are annotated with their Kd.

Line notation	Observed value
COc1ccc(S(=O)(=O)N(C(C)=O)c2ccccc2/C=C/c2cc[n+]([O-])cc2)cc1	> 30 µM (inactive)
NC(=O)Nc1cc(-c2cccc(F)c2)sc1C(=O)N[C@H]1CCCNC1	> 30 µM (inactive)

If you can, please state the reported Kd value of CC(C)(C)c1nc(-c2cccc(NS(=O)(=O)c3c(F)cccc3F)c2F)c(-c2ccnc(N)n2)s1 . > 30 µM (inactive)

* * *

Target: Serine/threonine-protein kinase SIK3 (Homo sapiens); further: in the data inactive means no Kd found up to 30 µM
Sequence (Q9Y2K2 whole entry): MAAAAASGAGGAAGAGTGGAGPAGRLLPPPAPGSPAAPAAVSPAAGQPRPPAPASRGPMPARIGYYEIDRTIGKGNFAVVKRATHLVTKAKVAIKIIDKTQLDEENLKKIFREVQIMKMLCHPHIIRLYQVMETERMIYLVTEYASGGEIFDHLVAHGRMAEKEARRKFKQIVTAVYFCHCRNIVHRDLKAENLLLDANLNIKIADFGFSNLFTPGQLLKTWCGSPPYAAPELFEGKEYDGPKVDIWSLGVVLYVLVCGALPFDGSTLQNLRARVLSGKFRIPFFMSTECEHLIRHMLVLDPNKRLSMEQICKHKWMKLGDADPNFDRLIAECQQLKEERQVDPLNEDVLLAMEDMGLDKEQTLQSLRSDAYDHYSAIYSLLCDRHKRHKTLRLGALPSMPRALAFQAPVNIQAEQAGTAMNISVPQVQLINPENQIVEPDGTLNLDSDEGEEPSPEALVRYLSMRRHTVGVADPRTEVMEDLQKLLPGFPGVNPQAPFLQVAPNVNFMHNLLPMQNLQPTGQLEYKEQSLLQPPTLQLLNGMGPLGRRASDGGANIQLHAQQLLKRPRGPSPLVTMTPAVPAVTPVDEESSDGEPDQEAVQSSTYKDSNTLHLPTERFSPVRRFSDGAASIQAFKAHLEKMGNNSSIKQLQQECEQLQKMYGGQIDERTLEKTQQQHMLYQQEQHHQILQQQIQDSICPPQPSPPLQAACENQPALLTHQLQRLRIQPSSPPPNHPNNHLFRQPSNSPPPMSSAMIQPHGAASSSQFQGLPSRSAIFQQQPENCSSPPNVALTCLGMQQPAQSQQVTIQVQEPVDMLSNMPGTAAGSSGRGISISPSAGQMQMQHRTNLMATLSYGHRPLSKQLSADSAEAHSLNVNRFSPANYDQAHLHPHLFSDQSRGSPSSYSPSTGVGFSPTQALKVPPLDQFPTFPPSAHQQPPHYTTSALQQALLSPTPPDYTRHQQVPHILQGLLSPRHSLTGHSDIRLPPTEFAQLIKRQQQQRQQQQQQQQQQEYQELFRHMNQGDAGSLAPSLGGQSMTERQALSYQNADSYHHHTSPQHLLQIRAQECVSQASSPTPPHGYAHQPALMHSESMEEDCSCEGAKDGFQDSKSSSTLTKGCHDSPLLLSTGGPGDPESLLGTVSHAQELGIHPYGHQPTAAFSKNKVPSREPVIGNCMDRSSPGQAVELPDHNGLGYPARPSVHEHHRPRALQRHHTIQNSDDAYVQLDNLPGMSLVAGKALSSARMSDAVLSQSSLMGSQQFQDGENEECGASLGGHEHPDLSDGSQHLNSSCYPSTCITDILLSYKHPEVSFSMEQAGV
Active and inactive are the calls of the source.
Experimental readout: Kd

Compound	Experimental readout	Observed value
CO[C@H]1C[C@@H]2CC[C@@H](C)[C@@](O)(O2)C(=O)C(=O)N2CCCC[C@H]2C(=O)O[C@H]([C@H](C)C[C@@H]2CC[C@@H](OC(=O)C(C)(CO)CO)[C@H](OC)C2)CC(=O)[C@H](C)/C=C(\C)[C@@H](O)[C@@H](OC)C(=O)[C@H](C)C[C@H](C)/C=C/C=C/C=C/1C [TEMSIROLIMUS]	Kd	> 30 µM (inactive)
C[C@H]1CNCCCN1S(=O)(=O)c1cccc2cncc(F)c12	Kd	> 30 µM (inactive)

What measured Kd is associated with CCNC(=O)C#Cc1ccc2c(c1)NC(=O)/C2=C(\Nc1ccc(CN(C)C)cc1)c1ccccc1 on Serine/threonine-protein kinase SIK3 (Homo sapiens)? > 30 µM (inactive)

Request - read-out Kd | tested on Serine/threonine-protein kinase SIK3 (Homo sapiens) | compound COCC(=O)NC/C=C/c1ccc2ncnc(Nc3ccc(Oc4ccc(C)nc4)c(C)c3)c2c1 [CP-724714] > 30 µM (inactive)

State its Kd on Serine/threonine-protein kinase SIK3 (Homo sapiens): COc1cc2ncnc(Oc3cccc(NC(=O)Nc4cc(C(C)(C)C(F)(F)F)on4)c3)c2cc1OC [CEP-32496] > 30 µM (inactive)

Please provide the recorded Kd for C#Cc1cccc(Nc2ncnc3cc(OC)c(OCCCCCCC(=O)NO)cc23)c1 [CUDC-101] , tested on Serine/threonine-protein kinase SIK3 (Homo sapiens). > 30 µM (inactive)

Observed Kd on Serine/threonine-protein kinase SIK3 (Homo sapiens) for C[C@@H](Oc1cc(C(=O)Nc2ccc(C(=O)N3CCN(C)CC3)cc2)nnc1N)c1c(Cl)ccc(F)c1Cl , please. > 30 µM (inactive)

* * *

Molecular target: UniProtKB P07947
Sequence (P07947 whole entry): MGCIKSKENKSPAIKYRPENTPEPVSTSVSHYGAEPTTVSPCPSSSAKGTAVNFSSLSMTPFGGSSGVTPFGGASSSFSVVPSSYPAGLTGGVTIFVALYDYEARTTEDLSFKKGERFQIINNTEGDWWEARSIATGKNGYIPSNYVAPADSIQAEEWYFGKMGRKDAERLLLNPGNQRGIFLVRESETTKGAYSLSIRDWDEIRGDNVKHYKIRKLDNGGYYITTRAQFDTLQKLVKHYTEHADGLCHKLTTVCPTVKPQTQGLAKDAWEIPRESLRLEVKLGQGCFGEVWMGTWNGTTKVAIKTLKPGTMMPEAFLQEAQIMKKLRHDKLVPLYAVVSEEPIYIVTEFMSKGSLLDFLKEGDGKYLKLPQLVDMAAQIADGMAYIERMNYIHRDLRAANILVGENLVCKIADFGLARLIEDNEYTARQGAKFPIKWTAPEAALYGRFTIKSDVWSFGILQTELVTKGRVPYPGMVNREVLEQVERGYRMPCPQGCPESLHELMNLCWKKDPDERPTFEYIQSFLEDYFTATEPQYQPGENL
Activity calls are given as the source filed them.
Lab note: assign the record to one of active, inactive

As a guide, the following entries are already answered.
Compound	Target or test system	Label value
COCc1c(-c2ccc(NC(=O)Nc3cc(C(F)(F)F)ccc3F)c(F)c2)c2c(N)ncnn2c1CN1CCOCC1	UniProtKB P07947	inactive
Nc1ncnc2c1c(-c1cccc(OCc3ccccc3)c1)cn2[C@H]1C[C@@H](CN2CCC2)C1	UniProtKB P07947	active
COc1ccc(S(=O)(=O)N(C(C)=O)c2ccccc2/C=C/c2cc[n+]([O-])cc2)cc1	UniProtKB P07947	inactive
C=CC(=O)Nc1cc2c(Nc3ccc(F)c(Cl)c3)ncnc2cc1C#CC(C)(C)N1CCN(C)CC1 [AV-412 FREE BASE]	UniProtKB P07947	active
CCCCCCCCCCCCCCCCCCOP(=O)([O-])OC1CC[N+](C)(C)CC1	UniProtKB P07947	inactive
CNC(=O)c1nn(C)c2c1C(C)(C)Cc1cnc(Nc3ccc(N4CCN(C)CC4)cc3)nc1-2	UniProtKB P07947	active
Cc1[nH]c(/C=C2\C(=O)Nc3ccccc32)c(C)c1CCC(=O)O [ORANTINIB]	UniProtKB P07947	inactive

What did the test return for CCn1cc(-c2ccnc3[nH]c(-c4cccc(CN(C)C)c4)cc23)c(-c2ccc(NC(=O)N(C)C)cc2)n1 ? inactive
